Test target: Kir3.4/4(S143F) channel mutant (Homo sapiens, UniProt P48544, S143F)
Sequence (P48544 1-419 S143F): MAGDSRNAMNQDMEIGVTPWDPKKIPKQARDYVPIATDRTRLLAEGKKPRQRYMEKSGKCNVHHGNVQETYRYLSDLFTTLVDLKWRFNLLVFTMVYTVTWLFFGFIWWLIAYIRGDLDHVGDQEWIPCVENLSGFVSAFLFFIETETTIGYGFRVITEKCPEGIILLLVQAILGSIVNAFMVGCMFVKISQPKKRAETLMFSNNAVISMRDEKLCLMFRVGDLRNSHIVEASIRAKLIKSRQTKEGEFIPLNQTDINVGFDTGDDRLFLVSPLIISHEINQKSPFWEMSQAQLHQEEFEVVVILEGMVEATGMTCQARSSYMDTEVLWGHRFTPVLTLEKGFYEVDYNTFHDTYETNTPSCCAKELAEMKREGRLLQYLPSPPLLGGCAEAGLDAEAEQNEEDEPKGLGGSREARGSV
Sequence (P48544 1-419): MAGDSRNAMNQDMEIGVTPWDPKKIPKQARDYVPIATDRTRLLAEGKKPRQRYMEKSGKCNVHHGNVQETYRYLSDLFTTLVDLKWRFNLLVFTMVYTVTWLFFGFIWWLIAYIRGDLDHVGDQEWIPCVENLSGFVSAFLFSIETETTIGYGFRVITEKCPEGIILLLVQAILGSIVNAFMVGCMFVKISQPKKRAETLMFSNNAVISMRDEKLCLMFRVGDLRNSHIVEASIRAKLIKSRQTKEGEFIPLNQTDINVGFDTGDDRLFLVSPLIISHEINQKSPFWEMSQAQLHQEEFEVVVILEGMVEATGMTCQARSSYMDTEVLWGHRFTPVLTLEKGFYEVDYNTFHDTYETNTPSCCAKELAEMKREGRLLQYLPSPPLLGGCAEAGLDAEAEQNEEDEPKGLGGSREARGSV
Assay remarks: TEVC in Xenopus oocytes, Kir3.4/4(S143F)
Test parameters: read-out: IC50, inhibition of Kir3.4/4(S143F)
Reported property: IC50 (nM)

Molecule | Measurement
Cc1cc(CO)nc2cc3c(cc12)OC(C)(C)[C@H](O)[C@H]3NCCc1ccccc1 [BP-G1] | 62.1

The reported measurements were obtained from paper PMC8086025.
